# IC50 listing for each entry below
tested on: Trichophyton mentagrophytes; test: Antifungal activity against Trichophyton mentagrophytes after 96 hrs by broth micro-dilution method; type: functional
*1 amine or outer side, *2 acyl side, *3 side chain or, on linkers, in order; H or OH if unused. Where a SMILES comes first, the peptide text is derived from it. Bridges are numbered along the chain shown (N, C = ends). [ ]: non-standard residue; d: D form. The star is where a group is joined. hTyr(3S-OH,4S-OH,3'-OSO3H) = N[C@H](C(=O)O)[C@H](O)[C@@H](O)c1ccc(O)c(OS(=O)(=O)O)c1; Orn(4R-OH,5R-OH) = O=C([C@H](C[C@@H](O)[C@@H](O)N[*:3])N[*:1])[*:2]; Pro(3S-OH,4S-Me) = C[C@H]1CN[C@H](C(=O)O)[C@H]1O; X1 = CCCCCOc1ccc(-c2cc(-c3ccc(C(=O)*)cc3)no2)cc1; Gln(3R-OH) = NC(=O)C[C@@H](O)[C@H](N)C(=O)O; Hyp = O=C(O)[C@@H]1C[C@@H](O)CN1

compound	experimental.system	IC50
CCCCCOc1ccc(-c2cc(-c3ccc(C(=O)N[C@H]4C[C@@H](O)[C@@H](O)NC(=O)[C@@H]5[C@@H](O)[C@@H](C)CN5C(=O)[C@H]([C@H](O)CC(N)=O)NC(=O)[C@H]([C@H](O)[C@@H](O)c5ccc(O)c(OS(=O)(=O)O)c5)NC(=O)[C@@H]5C[C@@H](O)CN5C(=O)[C@H]([C@@H](C)O)NC4=O)cc3)no2)cc1 [MICAFUNGIN] (X1-[Orn(4R-OH,5R-OH)]T[Hyp][hTyr(3S-OH,4S-OH,3'-OSO3H)][Gln(3R-OH)][Pro(3S-OH,4S-Me)]; lactam 1-C)	Trichophyton mentagrophytes	< 0.1 µg/mL

Look at this compound and give its reported IC50. `Cc1cccc(O)c1C(=O)O[C@@H]1[C@@H](O)[C@H](O)[C@@H](NC(=O)c2cccc(O)c2)C[C@H]1OC(N)=O`
> 32 µg/mL

Look at this compound and give its reported IC50. `Cc1cccc(O)c1C(=O)O[C@H]1[C@H](O)[C@@H](O)[C@H](OC(N)=O)C[C@@H]1NC(=O)c1cccc(O)c1`
> 32 µg/mL

Provenance of the data: ChEMBL document CHEMBL4038264
